Substrate: NC(=O)C1=CN([C@@H]2O[C@H](COP(=O)(O)OP(=O)(O)OC[C@H]3O[C@@H](n4cnc5c(N)ncnc54)[C@H](OP(=O)(O)O)[C@@H]3O)[C@@H](O)[C@H]2O)C=CC1
Experiment: purified protein
Assay type: biochemical, Bacillus subtilis
Conditions: 1 mM L-P5C, 20 mM Tris-HCl pH 7.0, 30°C, kcat per monomer
attribute_measured: kcat (s⁻¹)
Form entry: value (s⁻¹) — number only.

ProG, putative δ1-pyrroline-5-carboxylate (P5C) reductase from Bacillus subtilis (enzyme, Bacillus subtilis strain 168, UniProt Q00777 1-272, looked up, ProG, putative P5C reductase, Bacillus subtilis strain 168; calculated mass 30.20 kDa; Cloned in pMCSG68 (His6 tag and TEV site at the N-terminus); also called P5C reductase ProG; source: E. coli BL21 Gold, purified (Ni-NTA, TEV cleavage, second Ni-NTA, SEC on Superdex 200); not shown: His6, N-terminal, cleaved) MEQIGLIGYGSMADMIARQLLKHEQIKENELFIETRTKGERLRALMSDYPNVSADPLENWANTCQLILICVPPLHVIETMRRLYPYVNRNTHIVSIAAGVPLRLLEAETEAGISRVIPAITSEAEAGISLVVHSEALAAEKKERLNELLSVFSRVREIKESNLDVASNLTSSAPGFIAAIFEELALSAVRNSSLSKEEAFDFLIHSLYGTGKMLIEKNMSFEETLERVATKGGITGEGAEVIHASVPDVFDEVFERTLRKYELLTEQVGKQT = 19
ProI, putative δ1-pyrroline-5-carboxylate (P5C) reductase from Bacillus subtilis (enzyme, Bacillus subtilis strain 168, UniProt P54552 1-278, looked up, ProI, putative P5C reductase, Bacillus subtilis strain 168; calculated mass 30.90 kDa; Cloned in pMCSG68 (His6 tag and TEV site at the N-terminus); also called P5C reductase ProI; source: E. coli BL21 Gold, purified (Ni-NTA, TEV cleavage, second Ni-NTA, SEC on Superdex 200); not shown: His6, N-terminal, cleaved) MKKIGFVGAGSMAEAMINGILQSGITKPEHIYITNRSNDERLIELKETYSVRPCRDKNEFFTHTDIIILAFKPKDAAESIDSIRPYIKDQLVISVLAGLTIETIQHYFGRKLAVIRVMPNTSAAIRKSATGFSVSTEASKNDIIAAKALLETIGDATLVEERHLDAVTAIAGSGPAYVYRYIEAMEKAAQKVGLDKETAKALILQTMAGATDMLLQSGKQPEKLRKEITSPGGTTEAGLRALQDSRFEEAIIHCIEETAKRSAEIKEQFAGAALERHS = 0.14
ProH (Bacillus subtilis subsp. subtilis str. 168) (protein, full-length; pMCSG68, N-terminal His6-TEV tag removed; E. coli BL21 Gold; homodimer by SAXS) MRTKKRTKEMLPIFDQKKVAFIGAGSMAEGMISGIVRANKIPKQNICVTNRSNTERLTELELQYGIKGALPNQLCIEDMDVLILAMKPKDAENALSSLKSRIQPHQLILSVLAGITTSFIEQSLLNEQPVVRVMPNTSSMIGASATAIALGKYVSEDLKKLAEALLGCMGEVYTIQENQMDIFTGIAGSGPAYFYYLMEFIEKTGEEAGLDKQLSRSIGAQTLLGAAKMLMETGEHPEILRDNITSPNGTTAAGLQA = 814

Next protein, please.
Problem: Using the record for ComER (Bacillus subtilis subsp. subtilis str. 168) (protein, full-length; pMCSG68, N-terminal His6-TEV tag removed; E. coli BL21 Gold; monomer by SAXS) MKIGFIGTGNMGTILIESFIESKAADPSNMTITNRTIEKALHIKNRYNSINVTESLEKLVSENEMIFICVKPLDIYPLLARALPYLRKDHILISITSPVQTEQLEQYVPCQVARVIPSITNRALAGVSLVTFGTSCGESAKAKINELMQHISHPLQIESDITRVASDIVSCGPAFMSYLIQRFIDAAVSETSVSKQDAILMCKEMLVGMGKLLETELYTLPALQEKVCVKGGVTGEGIKALESGVQDMFHRVFQNTHMKYEEDISAVKKQFHV , state its measured kcat.
Result: 0.09
